molecular target: recombinant human GST-Syk (Homo sapiens); construct: purchased Carna Biosciences 08-176; test: Homogeneous Time-Resolved Fluorescence (HTRF) assay for the recombinant human Syk enzyme; format: biochemical; settings: recombinant human GST-Syk 5 pM, ATP 25 μM, 10-dose titration 10 μM to 0.508 nM; read-out: rhSYK Activity IC50
Criterion: IC50 strictly less than 20 nM. Met: TRUE. Not met: FALSE.

Past entries and their recorded results:
Cc1ccnc(Nc2cc(C)cc(-c3cn(C[C@H](O)CC#N)nn3)n2)c1 | FALSE
Cc1cc(Nc2nccc(C)n2)cc(-c2cn(C[C@](C)(O)CO)nn2)c1 (single isomer, unassigned) [Example 21.2] | TRUE

Query :: Take the molecule Cc1cc(Nc2cc(C(F)F)ccn2)nc(-c2cn(CC3CNCCO3)nn2)c1 (single isomer, unassigned) [Example 26.1] and say whether its IC50 is less than 20 nM.
Result :: TRUE

Query :: Please determine if Cc1cc(Nc2cc(C(F)(F)F)ccn2)nc(-c2cn(C/C=C/C(N)=O)nn2)c1 is below 20 nM in terms of IC50.
Result :: FALSE

Query :: Quick check: IC50 of Cc1cc(Nc2cc(C(F)(F)F)ccn2)nc(-c2cn(C(C)C(=O)NCc3cccc4nsnc34)nn2)c1 (stereo not shown) under 20 nM?
Result :: FALSE

Query :: I'd appreciate it if you could check whether Cc1cc(Nc2nccc(C(F)F)n2)cc(-c2cn(CC(C)(O)CO)nn2)c1 (single isomer, unassigned) [Example 21.7] has IC50 smaller than 20 nM.
Result :: TRUE

###

biological target: recombinant human GST-Syk (Homo sapiens, UniProt P43405); construct: purchased Carna Biosciences 08-176; test: Homogeneous Time-Resolved Fluorescence (HTRF) assay for the recombinant human Syk enzyme; type: biochemical; settings: recombinant human GST-Syk 5 pM, ATP 25 μM, 10-dose titration 10 μM to 0.508 nM; read-out: rhSYK Activity IC50
Measured endpoint: pIC50
Please report pIC50 as the negative decimal logarithm of the molar concentration, giving only the number.

Look over these answered cases.
Cc1cc(Nc2cc(C(F)(F)F)ccn2)nc(-c2cn(C(CO)c3ccc(C(=O)O)cc3)nn2)c1 (centres unmarked) [Example 3.17] | 10.00
Cc1cc(Nc2cc(C(F)(F)F)ccn2)nc(-c2cn(C(C(N)=O)c3ccccc3)nn2)c1 (centres unmarked) [Example 1.18] | 7.93
Cc1cc(Nc2nccc(C(F)F)n2)cc(-c2cn(CC3CNC(=O)C3)nn2)c1 (single isomer, unassigned) [Example 28.1] | 8.08
Cc1cc(Nc2cc(C(F)(F)F)ccn2)nc(-c2cn(CC(O)COCC(F)(F)F)nn2)c1 (centres unmarked) [Example 4.32] | 8.32
Cc1cc(Nc2cc(C(F)(F)F)ccn2)nc(-c2cn(CC(O)C(C)(C)C)nn2)c1 (centres unmarked) [Example 4.25] | 7.92
Cc1cc(Nc2cc(C(F)F)ccn2)nc(-c2cn(CC3OC(=O)NC3C)nn2)c1 (single isomer, unassigned) [Example 7.43] | 8.42

Query :: Entry Cc1cc(Nc2nccc(C(F)(F)F)n2)cc(-c2cn(C(C)C(=O)O)nn2)c1 (racemic) [Example 5.64] : reported pIC50 = ?
Result :: 7.38

###

biological target: recombinant human GST-Syk (Homo sapiens); construct: purchased Carna Biosciences 08-176; assay: Homogeneous Time-Resolved Fluorescence (HTRF) assay for the recombinant human Syk enzyme; format: biochemical; settings: recombinant human GST-Syk 5 pM, ATP 25 μM, 10-dose titration 10 μM to 0.508 nM; read-out: rhSYK Activity IC50
Entries and their pIC50
Scale note: pIC50 = -log10(concentration in M).

Examples with their reported pIC50 follow.
Cc1cc(Nc2nccc(C(F)(F)F)n2)cc(-c2cn(CCCN3CCOCC3)nn2)c1 | 6.75
Cc1cc(Nc2cc(C(F)(F)F)ccn2)nc(-c2c[nH]nn2)c1 | 7.60
Cc1cc(Nc2cc(C(F)(F)F)ccn2)nc(-c2cn([C@H](C)c3ccc(C(=O)O)cc3)nn2)c1 | 8.09

Query :: Reported pIC50, compound Cc1cc(Nc2cc(C(F)(F)F)ccn2)nc(-c2cn(C[C@H](C)CO)nn2)c1 : ____
Result :: 8.10

Query :: May I ask what pIC50 has been recorded for CCOC(=O)C(C)(C)Cc1cn(-c2cc(C)cc(Nc3nccc(C(F)(F)F)n3)c2)nn1 ?
Result :: 6.59

Query :: pIC50 lookup needed for Cc1cc(Nc2nccc(C(F)(F)F)n2)cc(-c2nc[nH]n2)c1 , thanks.
Result :: 6.55

Query :: Record request: pIC50 value, item Cc1cc(Nc2cc(C(F)(F)F)ccn2)nc(-c2cn(Cc3cnc(C)[nH]3)nn2)c1
Result :: 8.49

Query :: Param item = COC(=O)C(C)n1cc(-c2cc(C)cc(Nc3cc(C(F)(F)F)ccn3)n2)nn1 (stereo not drawn) ; retrieve measured pIC50.
Result :: 7.62

Query :: Fill blank: measured pIC50 of the compound Cc1cc(Nc2cc(C(F)F)ccn2)nc(-c2cn(CC3(C)CNC(=O)O3)nn2)c1 (single isomer, unassigned) [Example 7.8] is ____.
Result :: 8.72

Query :: Sample Cc1cc(Nc2nccc(C(F)(F)F)n2)cc(-c2cn(CC(=O)N3CCOCC3(C)C)nn2)c1 — what was its pIC50?
Result :: 6.82

Query :: Requested field: pIC50. Item: Cc1cc(Nc2cc(C(F)(F)F)ccn2)nc(-c2cn(CC3(O)CCC3)nn2)c1
Result :: 8.70

Query :: Need pIC50, item Cc1cc(Nc2nccc(C(F)(F)F)n2)cc(-c2cn(CC(=O)O)nn2)c1
Result :: 7.21

Query :: For Cc1cc(Nc2nccc(C(F)F)n2)cc(-c2cn(CC3OC(=O)NC3C)nn2)c1 (single isomer, unassigned) [Example 7.7] , what is its reported pIC50?
Result :: 8.00

Query :: Query (compound): Cc1cc(Nc2nccc(C(F)(F)F)n2)cc(-c2cn(C3COCC3O)nn2)c1 (single isomer, unassigned) [Example 4.5] ; field requested: pIC50
Result :: 7.21

Query :: # input compound: Cc1cc(Nc2cc(C(F)F)ccn2)nc(-c2cn(C(C)C(C)(O)CO)nn2)c1 (single isomer, unassigned) [Example 30.6] ; wanted: its pIC50
Result :: 8.19

###

molecular target: recombinant human GST-Syk (Homo sapiens); construct: purchased Carna Biosciences 08-176; assay: Homogeneous Time-Resolved Fluorescence (HTRF) assay for the recombinant human Syk enzyme; format: biochemical; details: recombinant human GST-Syk 5 pM, ATP 25 μM, 10-dose titration 10 μM to 0.508 nM; read-out: rhSYK Activity IC50
Measured endpoint: pIC50
The quantity pIC50 is defined as the negative base-10 logarithm of the molar concentration.

Known results for compounds:
Cc1cc(Nc2cc(C(F)(F)F)ccn2)nc(-c2cn(CCCO)nn2)c1 | 6.32
Cc1cc(Nc2cc(C(F)(F)F)ccn2)nc(-c2cn(C3CNCC3O)nn2)c1 (racemic) [Example 19.1] | 7.49

Query :: What does the record list as pIC50 for Cc1cc(Nc2cc(C(F)(F)F)ccn2)nc(-c2cn(CC3(O)CCOC3)nn2)c1 (single isomer, unassigned) [Example 5.12] ?
Result :: 7.95

Query :: Need pIC50 of Cc1cc(Nc2nccc(C)n2)cc(-c2cn(C[C@](C)(O)CO)nn2)c1 (single isomer, unassigned) [Example 21.1] , thanks.
Result :: 8.21

###

molecular target: recombinant human GST-Syk (Homo sapiens, UniProt P43405); construct: purchased Carna Biosciences 08-176; test: Homogeneous Time-Resolved Fluorescence (HTRF) assay for the recombinant human Syk enzyme; format: biochemical; conditions: recombinant human GST-Syk 5 pM, ATP 25 μM, 10-dose titration 10 μM to 0.508 nM; read-out: rhSYK Activity IC50
pIC50: −log10 of the molar value.
Where pIC50 equals or exceeds 8, the correct label is fulfilled; where it does not, the label is not fulfilled.

Some entries whose results are on file:
Cc1cc(Nc2cc(OC3CCC3)ccn2)nc(-c2cn(C(C)c3ccc(C(=O)O)cc3)nn2)c1 (stereo not drawn) | not fulfilled
Cc1cc(Nc2cc(C(F)(F)F)ccn2)nc(-c2cn(Cc3cc[nH]n3)nn2)c1 | fulfilled
COc1nc(Nc2cc(C)cc(-c3cn(CC(C)(O)C(C)(C)O)nn3)c2)ncc1F (stereo not drawn) [Example 21.20] | not fulfilled
COCC(C)(C)NC(=O)Cn1cc(-c2cc(C)cc(Nc3nccc(C(F)(F)F)n3)c2)nn1 | not fulfilled
Cc1cc(Nc2cc(C(F)(F)F)ccn2)nc(-c2nnc(C)n2C)c1 | not fulfilled

Query :: Could you tell me if the measured pIC50 of Cc1cc(Nc2nccc(OC(C)C)n2)cc(-c2cn(CC(C)(O)C(C)(C)O)nn2)c1 (stereo not drawn) [Example 21.31] reaches 8 or more?
Result :: not fulfilled

Query :: Could you tell me if the measured pIC50 of Cc1cc(Nc2nccc(C(F)(F)F)n2)cc(-c2cn(CC(C)(C)O)nn2)c1 reaches 8 or more?
Result :: not fulfilled

Query :: Could you verify whether the entry Cc1cc(Nc2cc(C(F)(F)F)ccn2)nc(-c2cn([C@H](C)C(=O)N3CCC[C@H]3C(N)=O)nn2)c1 shows pIC50 of no less than 8?
Result :: not fulfilled

Query :: Dear colleague, could you confirm whether Cc1cc(Nc2cc(C(F)(F)F)ccn2)nc(-c2cn(C3CCCCC(O)C3O)nn2)c1 (single isomer, unassigned) [Example 10.5] has pIC50 at or above 8?
Result :: fulfilled

Query :: Say whether Cc1cc(Nc2cc(C(F)(F)F)ccn2)nc(-c2cn(CCC(N)=O)nn2)c1 shows pIC50 of 8 or more.
Result :: fulfilled
